Source listed as patent US12617777B2.

In this section, each of the molecules is paired with its reported pIC50.
Tested on: neutrophils
protocol-notes: Neutrophil migration assay (embelin as chemotactic agent, ATPlite readout)
Assay type: cell-based
condition-description: Neutrophil; human neutrophils, embelin as chemotactic agent; read-out: Human Neutrophil migration inhibition IC50
pIC50: −log10 of the molar value.

Below are worked cases with known answers.
>>> endpoint_result("Cc1cc(N2CCN(Cc3ccccn3)CC2)ccc1-c1cn(CC2CC(C)(C)CO2)nn1 (stereo not shown)")
"≥ 6.52"
>>> endpoint_result("CC(C)c1cc(C#CCN2CC(C)(C)C2)cnc1-c1cn(CC2CCCCO2)nn1 (stereo not shown)")
"≥ 6.52"

Query: Reported pIC50, molecule Cc1cc(N2CC3(CCCN3Cc3ccccc3)C2)ccc1-c1cn(CC2CCCCO2)nn1 (stereo not shown) : ____
Reply: 5.52 to 6.00

Query: # lookup: pIC50 of Cc1cc(N2CC(C)(CNc3ccccn3)C2)ccc1-c1cn(CC2CCCCO2)nn1 (stereo not shown)
Reply: ≥ 6.52
